- system under test: T1, ScPif1p R323A (Saccharomyces cerevisiae, UniProt P07271 237-780, R323A)
- T1 sequence: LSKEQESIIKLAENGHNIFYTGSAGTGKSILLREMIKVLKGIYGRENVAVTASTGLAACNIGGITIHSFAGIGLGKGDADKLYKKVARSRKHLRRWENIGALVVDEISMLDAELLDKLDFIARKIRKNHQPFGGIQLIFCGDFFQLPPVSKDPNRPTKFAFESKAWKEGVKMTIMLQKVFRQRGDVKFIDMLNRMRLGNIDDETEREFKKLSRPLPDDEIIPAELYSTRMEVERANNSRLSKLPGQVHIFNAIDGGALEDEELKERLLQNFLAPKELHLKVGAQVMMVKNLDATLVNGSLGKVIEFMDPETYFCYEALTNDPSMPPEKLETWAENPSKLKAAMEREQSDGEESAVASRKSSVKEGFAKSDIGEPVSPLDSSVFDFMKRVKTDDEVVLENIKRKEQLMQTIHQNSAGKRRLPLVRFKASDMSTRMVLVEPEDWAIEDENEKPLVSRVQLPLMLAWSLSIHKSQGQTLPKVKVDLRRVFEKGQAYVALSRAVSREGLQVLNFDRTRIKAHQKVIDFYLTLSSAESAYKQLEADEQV
- measurement description: fluorescence anisotropy
endpoint label: pKd
Please report pKd as the negative decimal logarithm of the molar concentration, giving only the number.

Consider the reported pKd for these binders:
binder: GTGTGTGTGGTG (ssDNA) [GR12]
endpoint label: pKd
result value: 8.00
--
binder: dsDNA16bp (dsDNA) DNA 1: CTCTGCTCGACGGATT DNA 2: AATCCGTCGAGCAGAG
endpoint label: pKd
result value: 7.00

Task: Please look up its pKd: AGGGTGGGTGGGTGGGT (structured_DNA) [F-G417]
Result: 7.60
